test system: Pseudomonas aeruginosa (MDR-PA, ATCC® BAA-3105™) biofilm; assay: Biofilm formation assays (crystal violet and CFU); type: cell-based; conditions: TSB, 96 wells, DNAzyme 2.5 μM, 16 hours; FIG. 4A
{CholTEG} = cholesterol-triethylene glycol
assayMetric: biofilm formation (crystal violet)

substance	systemName	assayMetric	reportedValue
5′-GATCAGGTG ggctagctacaacga AACGGCAGG-Chol-TEG-3′ (DNA GATCAGGTGGGCTAGCTACAACGAAACGGCAGG; DNA, 3' {CholTEG}, backbone and methylation of C not given here) [murG-162]	Pseudomonas aeruginosa (MDR-PA, ATCC® BAA-3105™) biofilm	biofilm formation (crystal violet)	biofilm inhibition
5′-GGCGTTCTG ggctagctacaacga TCGTGGATC-Chol-TEG-3′ (DNA GGCGTTCTGGGCTAGCTACAACGATCGTGGATC; DNA, 3' {CholTEG}, backbone and methylation of C not given here) [murG-366, 10-23 DNAzyme targeting murG RNA transcript, cleavage site nt 366, 3′ cholesterol-TEG]	Pseudomonas aeruginosa (MDR-PA, ATCC® BAA-3105™) biofilm	biofilm formation (crystal violet)	biofilm inhibition
5′-CTTGACCAG ggctagctacaacga GACTTCAGG-Chol-TEG-3′ (DNA CTTGACCAGGGCTAGCTACAACGAGACTTCAGG; DNA, 3' {CholTEG}, backbone and methylation of C not given here) [murG-207, 10-23 DNAzyme targeting murG RNA transcript, cleavage site nt 207, 3′ cholesterol-TEG]	Pseudomonas aeruginosa (MDR-PA, ATCC® BAA-3105™) biofilm	biofilm formation (crystal violet)	biofilm inhibition

The origin of these recorded values is patent US20240336923A1.
